# Test system: NCI-H1975
# Protocol Description: cells
# Assay type: functional, cell-based
# Stated Conditions: Homo sapiens
Quick list: IC50 per entry.
Report the figure in µM without appending any unit label.

A selection of reference data follows.
C=CC(=O)Nc1ccc(OC)c(Nc2cc(-n3c(SC)nnc3-c3ccc(F)cc3)ccn2)c1 :: 7.8
C=CC(=O)Nc1cccc(Nc2cc(-n3c(SC)nnc3-c3ccc(F)cc3)ccn2)c1 :: 10.7
C=CC(=O)Nc1cc(Nc2cc(-n3c(SC)nnc3-c3ccc(F)cc3)ccn2)c(OC)cc1N1CCC(N(C)C)CC1 :: 13.2

Challenge: Quick check: IC50 of C=CC(=O)Nc1cc(Nc2cc(-n3c(SC)nnc3-c3ccc(F)cc3)ccn2)ccc1N(C)CCN(C)C ?
Response given: 5.3

Where do the numbers come from? From ChEMBL document CHEMBL4706488.
